Assignment: determine reported OD450 for the given binders.
- Test System: T1, human MSLN-R2-his protein (human, UniProt Q13421 391-486)
- T1 construct: it is put last here; also called human MSLN-R2 protein; hMSLN-R2-his; not shown: His tag
- T1 sequence (Q13421 other isoform, or with tags, fused parts or gaps): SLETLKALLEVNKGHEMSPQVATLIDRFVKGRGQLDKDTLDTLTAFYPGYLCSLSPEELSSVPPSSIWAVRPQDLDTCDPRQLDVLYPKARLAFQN
- Protocol Description: ELISA on coated antigen, antibody 0.0002 nM
Numbers only, in OD.

Worked cases, answers included:
* S009-F7.61.21 (antibody, human IgG1, kappa, V domains shown, Human-murine chimeric antibody, human IgG1 heavy and kappa light constant regions) VH: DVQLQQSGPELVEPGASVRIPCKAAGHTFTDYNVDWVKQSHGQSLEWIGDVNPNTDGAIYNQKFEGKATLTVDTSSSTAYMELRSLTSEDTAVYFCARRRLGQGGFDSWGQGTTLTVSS VL: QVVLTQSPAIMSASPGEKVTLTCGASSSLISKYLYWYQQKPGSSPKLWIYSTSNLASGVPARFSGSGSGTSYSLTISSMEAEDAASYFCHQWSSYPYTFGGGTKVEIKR | 0.05
* S009-F7.65.13 (antibody, human IgG1, kappa, V domains shown, Human-murine chimeric antibody, human IgG1 heavy and kappa light constant regions) VH: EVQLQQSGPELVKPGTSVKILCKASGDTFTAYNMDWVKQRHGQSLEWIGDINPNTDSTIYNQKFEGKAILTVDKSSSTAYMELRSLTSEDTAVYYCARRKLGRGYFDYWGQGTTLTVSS VL: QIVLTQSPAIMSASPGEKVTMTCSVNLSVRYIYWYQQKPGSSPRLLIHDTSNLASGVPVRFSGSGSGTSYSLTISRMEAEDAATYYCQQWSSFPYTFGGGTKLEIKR | 0.05

*Q* Looking for the measured OD450 of S009-F7.30.5 (antibody, human IgG1, kappa, V domains shown, Human-murine chimeric antibody, human IgG1 heavy and kappa light constant regions) VH: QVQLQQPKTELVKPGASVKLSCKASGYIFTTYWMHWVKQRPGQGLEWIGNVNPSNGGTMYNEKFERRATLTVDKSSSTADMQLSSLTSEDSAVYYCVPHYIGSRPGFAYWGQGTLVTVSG VL: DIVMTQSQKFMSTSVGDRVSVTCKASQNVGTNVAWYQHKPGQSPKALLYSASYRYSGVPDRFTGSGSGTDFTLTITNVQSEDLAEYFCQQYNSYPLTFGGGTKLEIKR , can you help?
*A* 0.05
